# test.target: G-protein coupled receptor 3 (Homo sapiens)
# Sequence (P46089 whole entry): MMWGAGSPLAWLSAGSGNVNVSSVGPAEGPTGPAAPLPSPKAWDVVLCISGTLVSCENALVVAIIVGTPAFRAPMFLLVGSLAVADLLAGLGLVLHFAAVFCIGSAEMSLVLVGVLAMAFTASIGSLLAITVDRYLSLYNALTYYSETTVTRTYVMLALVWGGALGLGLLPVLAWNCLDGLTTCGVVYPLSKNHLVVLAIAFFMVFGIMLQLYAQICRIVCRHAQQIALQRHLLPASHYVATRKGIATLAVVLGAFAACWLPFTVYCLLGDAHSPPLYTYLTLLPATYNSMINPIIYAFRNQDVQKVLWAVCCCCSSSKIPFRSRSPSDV
# method.description: Agonist activity at human GPR3 expressed in HEK293 cells assessed as increase in cAMP accumulation incubated for 30 mins by HTRF assay
# Format: functional, cell-based
We begin with a simple list: items and their reported pEC50.
# pEC50 = -log10(concentration in molar units)

The recorded pEC50 with G-protein coupled receptor 3 (Homo sapiens) for Cn1c2ccccc2c2ccccc21 was 4.40

The recorded pEC50 with G-protein coupled receptor 3 (Homo sapiens) for c1ccc2c(c1)[nH]c1ccccc12 was 5.12

The recorded pEC50 with G-protein coupled receptor 3 (Homo sapiens) for CC1c2ccccc2-c2ccccc2N1C (centres undefined) was 4.22

The recorded pEC50 with G-protein coupled receptor 3 (Homo sapiens) for O=S1(=O)c2ccccc2-c2ccccc21 was 5.29

The recorded pEC50 with G-protein coupled receptor 3 (Homo sapiens) for O=CNC1c2ccccc2-c2ccccc21 was 3.80
